- Test system: C. albicans P-87
- Method: MIC80 broth double-dilution assay
- Format: cell-based
- Recorded Conditions: YPAD medium, 30° C., 24 h
Attribute Measured: MIC80 against C. albicans P-87 (µg/mL)

# Compound, Target, Result Modifier, Numeric Result
data = [
    ("CC(C)Cc1ccc([C@H](C)C(=O)NC[C@@](O)(Cn2cncn2)c2ccc(F)cc2F)cc1 [Hybrid 4]", "C. albicans P-87", "=", 0.5),
    ("O=C(Cc1ccccc1Nc1c(Cl)cccc1Cl)NC[C@@](O)(Cn1cncn1)c1ccc(F)cc1F [Hybrid 24]", "C. albicans P-87", ">", 64),
    ("O=C(NC[C@@](O)(Cn1cncn1)c1ccc(F)cc1F)c1cccnc1Nc1cccc(C(F)(F)F)c1 [Hybrid 18]", "C. albicans P-87", "=", 16),
    ("O=C(NC[C@](O)(Cn1cncn1)c1ccc(F)cc1F)c1ccccc1O [Hybrid 21]", "C. albicans P-87", "=", 0.12),
    ("C[C@@H](C(=O)NC[C@@](O)(Cn1cncn1)c1ccc(F)cc1F)c1cccc(C(=O)c2ccccc2)c1 [Hybrid 15]", "C. albicans P-87", ">", 64),
    ("COc1ccc2cc([C@@H](C)C(=O)NC[C@@](O)(Cn3cncn3)c3ccc(F)cc3F)ccc2c1 [Hybrid 11]", "C. albicans P-87", "=", 1),
    ("C[C@H](C(=O)NC[C@@](O)(Cn1cncn1)c1ccc(F)cc1F)c1ccc(-c2ccccc2)c(F)c1 [Hybrid 8]", "C. albicans P-87", "=", 64),
    ("C[C@@H](C(=O)NC[C@@](O)(Cn1cncn1)c1ccc(F)cc1F)c1ccc(-c2ccccc2)c(F)c1 [Hybrid 7]", "C. albicans P-87", "=", 4),
    ("COc1ccc2cc([C@H](C)C(=O)NC[C@@](O)(Cn3cncn3)c3ccc(F)cc3F)ccc2c1 [Hybrid 12]", "C. albicans P-87", "=", 4),
    ("C[C@H](C(=O)NC[C@](O)(Cn1cncn1)c1ccc(F)cc1F)c1ccc(-c2ccccc2)c(F)c1 [Hybrid 5]", "C. albicans P-87", "=", 0.015),
    ("C[C@H](C(=O)NC[C@@](O)(Cn1cncn1)c1ccc(F)cc1F)c1cccc(C(=O)c2ccccc2)c1 [Hybrid 16]", "C. albicans P-87", ">", 64),
    ("COc1ccc2cc([C@@H](C)C(=O)NC[C@](O)(Cn3cncn3)c3ccc(F)cc3F)ccc2c1 [Hybrid 10]", "C. albicans P-87", "=", 0.25),
    ("O=C(NC[C@@](O)(Cn1cncn1)c1ccc(F)cc1F)c1cc(-c2ccc(F)cc2F)ccc1O [Hybrid 20]", "C. albicans P-87", "=", 8),
    ("O=C(NC[C@](O)(Cn1cncn1)c1ccc(F)cc1F)c1cccnc1Nc1cccc(C(F)(F)F)c1 [Hybrid 17]", "C. albicans P-87", "=", 0.25),
    ("CC(C)Cc1ccc([C@H](C)C(=O)NC[C@](O)(Cn2cncn2)c2ccc(F)cc2F)cc1 [Hybrid 1]", "C. albicans P-87", "=", 0.003),
    ("COc1ccc2cc([C@H](C)C(=O)NC[C@](O)(Cn3cncn3)c3ccc(F)cc3F)ccc2c1 [Hybrid 9]", "C. albicans P-87", "=", 0.25),
    ("O=C(NC[C@](O)(Cn1cncn1)c1ccc(F)cc1F)c1cc(-c2ccc(F)cc2F)ccc1O [Hybrid 19]", "C. albicans P-87", "=", 0.03),
    ("CC(C)Cc1ccc([C@@H](C)C(=O)NC[C@@](O)(Cn2cncn2)c2ccc(F)cc2F)cc1 [Hybrid 3]", "C. albicans P-87", "=", 0.03),
    ("CC(C)Cc1ccc([C@@H](C)C(=O)NC[C@](O)(Cn2cncn2)c2ccc(F)cc2F)cc1 [Hybrid 2]", "C. albicans P-87", "=", 0.007),
    ("C[C@@H](C(=O)NC[C@](O)(Cn1cncn1)c1ccc(F)cc1F)c1ccc(-c2ccccc2)c(F)c1 [Hybrid 6]", "C. albicans P-87", "=", 0.03),
    ("O=C(Cc1ccccc1Nc1c(Cl)cccc1Cl)NC[C@](O)(Cn1cncn1)c1ccc(F)cc1F [Hybrid 23]", "C. albicans P-87", "=", 1),
    ("C[C@H](C(=O)NC[C@](O)(Cn1cncn1)c1ccc(F)cc1F)c1cccc(C(=O)c2ccccc2)c1 [Hybrid 13]", "C. albicans P-87", "=", 4),
    ("O=C(NC[C@@](O)(Cn1cncn1)c1ccc(F)cc1F)c1ccccc1O [Hybrid 22]", "C. albicans P-87", "=", 16),
    ("C[C@@H](C(=O)NC[C@](O)(Cn1cncn1)c1ccc(F)cc1F)c1cccc(C(=O)c2ccccc2)c1 [Hybrid 14]", "C. albicans P-87", "=", 1),
]
